Recorded kd for the following molecules
# system_name: T1, hT40 (T441, SEQ ID NO: 1) (Homo sapiens, UniProt P10636)
# T1 construct: Full length tau (hT40)
# procedure_details: Biacore X100 SPR kinetics of scAbs for hT40
# Assay type: binding
# condition_description: Table 25; '3a' and '3b' scAbs, hT40
Numbers only; they are read as s⁻¹.

3aA6: anti-tau clone, Table 8; SEQ ID NO: 418 (protein, 3aA6 amino acid sequence) QVRLQESGSSLVKPSQTLSLVCTVSGFPLTSNAVGWVRQAPGKAPEWLGLIDIDGDTAYNPALESRLSITRDTSKSQVSLSLSSVAIEDTAVYYCARHYDKWGYADSIDYWGPGLLVTVSSEGKSSGASGESKVDDQALLTQPSSVFGSLGQRVSITCSGSSSNVGYGDYVGWYQQVPGSAPKLLIYDATTRASGVPDRFSGSRSGNTATLTISSLQAEDEADYYCASYQNERSGVFGSGTRLTVLG: 0.0188

INPUT: Fill blank: measured kd of the molecule 3bG4: N-terminal anti-tau clone, Table 6; SEQ ID NO: 425 (protein, 3bG4 amino acid sequence) QVQLQESGPSLVKPSQTLSLTCTISGFSLISNGVGWVRQAPGKVPEWVGDIASSGKAYSNPALKSRLSITRDTSKSQVSLSLRSVTTEDTAVYYCVRCRDGGVTYGYDIDYWGPGLLVTVSSEGKSSGASGESKVDDQAVLTQPSSVSKSLGQSVSITCSGSTSNVGSGNDVSWFQQVPGSAPKLLFYGATNRASGVPDRFSGSRSGNTATLTITSLQAEDEADYYCGSYDSNSGGIFGSGTRLTVLG is ____.
OUTPUT: 0.05966
